Microtubule-associated protein tau (Homo sapiens, UniProt P10636): reported pIC50 for various compounds.
Sequence (P10636 whole entry): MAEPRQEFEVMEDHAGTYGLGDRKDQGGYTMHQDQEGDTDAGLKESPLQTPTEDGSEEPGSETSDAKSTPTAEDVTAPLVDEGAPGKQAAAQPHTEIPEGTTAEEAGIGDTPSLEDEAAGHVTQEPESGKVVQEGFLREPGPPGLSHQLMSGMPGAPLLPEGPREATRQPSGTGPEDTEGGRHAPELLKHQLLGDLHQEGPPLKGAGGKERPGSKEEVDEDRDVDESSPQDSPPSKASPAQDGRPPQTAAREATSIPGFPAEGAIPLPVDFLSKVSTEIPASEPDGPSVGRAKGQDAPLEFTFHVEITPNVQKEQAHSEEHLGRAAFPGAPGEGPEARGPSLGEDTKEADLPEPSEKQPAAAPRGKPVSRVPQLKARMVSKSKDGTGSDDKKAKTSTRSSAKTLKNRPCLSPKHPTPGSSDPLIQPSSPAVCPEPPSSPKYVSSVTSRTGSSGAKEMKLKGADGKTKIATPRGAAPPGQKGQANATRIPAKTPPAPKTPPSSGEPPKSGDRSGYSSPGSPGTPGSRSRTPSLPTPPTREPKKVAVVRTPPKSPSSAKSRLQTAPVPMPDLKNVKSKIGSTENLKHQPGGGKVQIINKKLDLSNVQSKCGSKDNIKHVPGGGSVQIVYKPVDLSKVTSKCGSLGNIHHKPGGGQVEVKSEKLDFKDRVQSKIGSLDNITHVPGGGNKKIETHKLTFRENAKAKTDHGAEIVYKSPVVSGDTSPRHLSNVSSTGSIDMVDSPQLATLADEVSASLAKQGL
Give bare numbers, as −log10 of the molar value.

Please review the following examples before continuing.
> print(dat)
                              record.smiles  property  measured.result
1  CC(=O)CCc1oc2ccc(-c3cccc(O)c3)cc2c1-c1ccc(C)o1     pIC50             5.86
2  Cc1ccc(-c2c(CCc3nc4ccccc4[nH]3)oc3ccc(Br)cc23)o1     pIC50             5.69
3  COc1cccc(-c2ccc3oc(CCC(C)=O)c(-c4ccc(C)o4)c3c2)c1     pIC50             5.52
4  CC(=O)CCc1oc2ccc(-c3ccncc3)cc2c1-c1ccc(C)o1     pIC50             5.20

# input for lookup
Suppose we examine the compound CC(=O)CCc1oc2cc(-c3cccnc3)ccc2c1-c1ccc(C)o1 ; what pIC50 value has been reported?
5.40
